The reported measurements were obtained from patent US9840494B2.

Experiment: Bioavailability assay in rats, Experiment I (dihydrochloride)
Assay type: in vivo
Conditions: male, rat, plasma, po; Wistar rats, 20 mg/kg ig; read-out: T½ elimination half-life (converted)
assay_endpoint: half-life (h)
Answers are plain numbers, in h.

Request: Data request, read-out half-life, for `COCCOc1cc2ncnc(Nc3ccc(F)c(Cl)c3)c2cc1NC(=O)C=C1CCN(CCOC)CC1.Cl.Cl`
Response: 4.73

###

Assay: Bioavailability assay in rats, Experiment I (dihydrochloride)
Type: in vivo
Details: male, rat, plasma, oral; Wistar rats, 20 mg/kg ig, 0.33 h; read-out: Average Plasma Drug Concentration
assay_endpoint: concentration at 0.33 h (ng/mL)
One number for each entry, in ng/mL.

Request: Data request, read-out concentration at 0.33 h, for COCCOc1cc2ncnc(Nc3ccc(F)c(Cl)c3)c2cc1NC(=O)C=C1CCN(CCOC)CC1.Cl.Cl [Compound 2, dihydrochloride]
Response: 145

###

Test: Bioavailability assay in rats, Experiment I (dihydrochloride)
Format: in vivo
Conditions: male, rat, plasma, oral; Wistar rats, 20 mg/kg ig, 30 h; read-out: Average Plasma Drug Concentration
assay_endpoint: concentration at 30 h (ng/mL)
Give bare numbers, in ng/mL.

Request: Data request, read-out concentration at 30 h, for COCCOc1cc2ncnc(Nc3ccc(F)c(Cl)c3)c2cc1NC(=O)C=C1CCN(CCOC)CC1.Cl.Cl [Compound 2, dihydrochloride]
Response: 22.7

###

Assay: Bioavailability assay in rats, Experiment I (dihydrochloride)
Type: in vivo
Settings: male, rat, plasma, oral; Wistar rats, 20 mg/kg ig, 6 h; read-out: Average Plasma Drug Concentration
assay_endpoint: concentration at 6 h (ng/mL)
Numbers only, in ng/mL.

Request: Data request, read-out concentration at 6 h, for COCCOc1cc2ncnc(Nc3ccc(F)c(Cl)c3)c2cc1NC(=O)C=C1CCN(CCOC)CC1.Cl.Cl [Compound 2, dihydrochloride]
Response: 536

###

Experiment: Bioavailability assay in rats, Experiment II (dihydrobromide)
Format: in vivo
Settings: both sexes, rat, plasma, oral; Wistar rats, 20 mg/kg ig vs 20 mg/kg iv
assay_endpoint: bioavailability (%)
Numbers only, in %.

Request: Data request, read-out bioavailability, for Br.Br.COCCOc1cc2ncnc(Nc3ccc(F)c(Cl)c3)c2cc1NC(=O)C=C1CCN(CCOC)CC1 [Example 5]
Response: 42.8

###

Assay: Bioavailability assay in rats, Experiment I (dihydrochloride)
Type: in vivo
Conditions: male, rat, plasma, oral; Wistar rats, 20 mg/kg ig, 0.75 h; read-out: Average Plasma Drug Concentration
assay_endpoint: concentration at 0.75 h (ng/mL)
Numbers only, in ng/mL.

Request: Data request, read-out concentration at 0.75 h, for COCCOc1cc2ncnc(Nc3ccc(F)c(Cl)c3)c2cc1NC(=O)C=C1CCN(CCOC)CC1.Cl.Cl [Compound 2, dihydrochloride]
Response: 285

###

Assay: Bioavailability assay in rats, Experiment I (dihydrochloride)
Type: in vivo
Conditions: male, rat, plasma, oral; Wistar rats, 20 mg/kg ig, 3 h; read-out: Average Plasma Drug Concentration
assay_endpoint: concentration at 3 h (ng/mL)
Numbers only, in ng/mL.

Request: Data request, read-out concentration at 3 h, for COCCOc1cc2ncnc(Nc3ccc(F)c(Cl)c3)c2cc1NC(=O)C=C1CCN(CCOC)CC1.Cl.Cl [Compound 2, dihydrochloride]
Response: 406
